system: ABUTH (Velvetleaf); test: Preemergence herbicidal evaluation; assay type: in vivo, Abutilon theophrasti; details: rate 0.0625 kg/ha; rated 4-5 weeks after treatment; rating scale 0-9
Known Preemergence herbicidal rating ABUTH of a selection of compounds

Compound structure string | Preemergence herbicidal rating ABUTH
Cc1cccc(CN2C(=O)CSC2=Nc2cc(-n3c(=O)cc(C(F)(F)F)n(C)c3=O)c(F)cc2Cl)c1 | 9.0
COc1ccc(CN2C(=O)CSC2=Nc2cc(-n3c(=O)cc(C(F)(F)F)n(C)c3=O)c(F)cc2Cl)c(OC)c1 | 0.0
Cn1c(C(F)(F)F)cc(=O)n(-c2cc(N=C3SCC(=O)N3Cc3ccc(Cl)cc3)c(Cl)cc2F)c1=O | 3.0
Cn1c(C(F)(F)F)cc(=O)n(-c2cc(N=C3SCC(=O)N3Cc3ccc(S(N)(=O)=O)cc3)c(Cl)cc2F)c1=O | 3.0

###

system: CASOB (Sicklepod); assay: Preemergence herbicidal evaluation; assay type: in vivo, Cassia obtusifolia; settings: rate 0.0625 kg/ha; rated 4-5 weeks after treatment

Molecule | Preemergence herbicidal rating CASOB
CCOC(=O)COc1ccccc1CC1S/C(=N/c2cc(-n3c(=O)cc(C(F)(F)F)n(C)c3=O)c(F)cc2Cl)N(CC(=O)OCC)C1=O (stereo not shown) | 1.0
CCOC(=O)CN1C(=O)C(CC(=O)OC(C)C)SC1=Nc1cc(-n2c(=O)cc(C(F)(F)F)n(C)c2=O)c(F)cc1Cl (stereo not shown) | 0.0
C=CCN1C(=O)CSC1=Nc1cc(-n2c(=O)cc(C(F)(F)F)n(C)c2=O)c(F)cc1Cl | 0.0
CCOP(=O)(CN1C(=O)CSC1=Nc1cc(-n2c(=O)cc(C(F)(F)F)n(C)c2=O)c(F)cc1Cl)OCC | 0.0

###

tested on: CYPSE (Flatsedge); assay: Preemergence weed control under flooded paddy conditions; type: in vivo, Cyperus serotinus; settings: 0.1250 kg/ha, rated 3-4 weeks after treatment

Compound | Herbicidal rating CYPSE
Cn1c(C(F)(F)F)cc(=O)n(-c2cc(N=C3SCC(=O)N3CC(=O)NS(C)(=O)=O)c(Cl)cc2F)c1=O [Compound 38] | 0.0
CN1C(=O)CSC1=Nc1cc(N2C(=O)C3=C(CCCC3)C2=O)c(F)cc1Cl [Compound 1] | 0.0
CCOC(=O)CN1C(=O)C(F)SC1=Nc1cc(-n2c(=O)cc(C(F)(F)F)n(C)c2=O)c(F)cc1Cl (centres unmarked) [Compound 11] | 0.0
CN1C(=O)C(F)SC1=Nc1cc(N2C(=O)C3=C(CCCC3)C2=O)c(F)cc1Cl (centres unmarked) [Compound 5] | 0.0
Cn1c(C(F)(F)F)cc(=O)n(-c2cc(N=C3SCC(=O)N3CCC(=O)O)c(Cl)cc2F)c1=O [Compound 31] | 0.0
CC1SC(=Nc2cc(-n3c(=O)cc(C(F)(F)F)n(C)c3=O)c(F)cc2Cl)N(C)C1=O (centres unmarked) [Compound 9] | 2.0
CCOC(=O)COc1ccccc1CC1S/C(=N/c2cc(-n3c(=O)cc(C(F)(F)F)n(C)c3=O)c(F)cc2Cl)N(CC(=O)OCC)C1=O (centres unmarked) [Compound 42] | 0.0
CCOC(=O)CN1CCSC1=Nc1cc(-n2nc(C)n(C(F)F)c2=O)c(F)cc1Cl [Compound 36] | 2.0
